- System tested: L-lactate dehydrogenase (Plasmodium falciparum (isolate CDC / Honduras))
- Test protocol: PfLDH activity inhibition – cell lysate, 3D7 strain, counter-screen for P. falciparum growth inhibition project (AID 2304);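 note: 0% = vehicle and 100% = reference inhibitor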
- Measurement setup: P. falciparum 3D7 crude extract, LDH APAD/NBT absorbance; at 2 µM; stronger effect = higher value
Please go through the items and note down their inhibition.
Entry rule: numbers only, all in %.

What the record says about O=C(NCCCCN1CCC(c2ccc3c(c2OCc2ccncc2)CCCC3)CC1)c1ccc(NC(=O)c2ccc(Cl)cc2)cc1 : inhibition is -4

What the record says about Cc1noc(C)c1-c1cccc(CNCc2cccc(-c3ccc(-c4nc5ccc(C(F)(F)F)cc5[nH]4)s3)c2)c1 : inhibition is 0

What the record says about O=C(NCCCCCN1CCC(c2c[nH]c3ccccc23)CC1)Nc1cccc(Br)c1 : inhibition is 3

What the record says about Cc1cc(NC(=O)NCCN2CCC(NC(=O)c3ccc(F)cc3)CC2)c2ccccc2n1 : inhibition is -2

What the record says about CCCc1cc(NC2CCN(C)CC2)nc(Nc2ccc(C)cc2)n1 : inhibition is -1
